molecular target: 3-oxo-5-alpha-steroid 4-dehydrogenase 1 (Homo sapiens, UniProt P18405); assay: Apparent inhibitory activity against human Steroid 5-alpha-reductase type I expressed in CHO cells; type: cell-based; settings: read-out: Ki app
Sequence (P18405 whole entry): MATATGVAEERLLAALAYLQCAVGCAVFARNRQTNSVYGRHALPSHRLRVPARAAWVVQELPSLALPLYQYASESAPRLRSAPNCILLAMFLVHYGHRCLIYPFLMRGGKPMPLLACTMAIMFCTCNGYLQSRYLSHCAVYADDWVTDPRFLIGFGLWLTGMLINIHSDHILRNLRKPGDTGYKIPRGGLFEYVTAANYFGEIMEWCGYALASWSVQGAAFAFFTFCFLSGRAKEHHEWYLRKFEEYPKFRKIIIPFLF
observedProperty: Ki (nM)
One number for each entry, in nM.

response.value for COc1cccc2c1CC[C@H]1[C-]([N+]#N)C(=O)CC[C@]21C (field: Ki) = 120

Data provenance is ChEMBL document CHEMBL1129010.
